# EXPERIMENTAL PROTOCOL: Multiple-dose PK, 2-hour SC infusion once daily for 14 days, Japanese prostate cancer patients
# Type: in vivo, human
# CONDITION PARAMETERS: male, human, in vivo, sc, 0.5 mg/day, Mean percent cumulative urinary excretion at 24 hours postdose
Where a SMILES comes first, the peptide text is derived from it. [ ]: non-standard residue; d: D form. Arg(Me) = CNC(=N)NCCC[C@H](N)C(=O)O; Hyp = O=C(O)[C@@H]1C[C@@H](O)CN1; azaGly = NNC(=O)O
PROPERTY: dose excreted (%)
Give a bare numeral; the unit % is implied.

Lab book: dose excreted of CNC(=N)NCCC[C@H](NC(=O)[C@H](CC(C)C)NC(=O)NNC(=O)[C@H](Cc1ccccc1)NC(=O)[C@@H](NC(=O)[C@H](CC(N)=O)NC(=O)[C@@H]1C[C@@H](O)CN1C(=O)[C@@H](Cc1ccc(O)cc1)NC(C)=O)[C@@H](C)O)C(=O)N[C@@H](Cc1c[nH]c2ccccc12)C(N)=O [Compound 1] (Ac-[dY][Hyp]NTF[azaGly]L[Arg(Me)]W-NH2) noted as 6.5

====

# EXPERIMENTAL PROTOCOL: Single dose PK, phase 1, healthy Japanese men
# Assay type: in vivo, human
# CONDITION PARAMETERS: male, human, urine, sc, 0.25 mg, single SC bolus 0.25 mg, mean, read-out: Fe (urine)
Where a SMILES comes first, the peptide text is derived from it. [ ]: non-standard residue; d: D form. Arg(Me) = CNC(=N)NCCC[C@H](N)C(=O)O; Hyp = O=C(O)[C@@H]1C[C@@H](O)CN1; azaGly = NNC(=O)O
PROPERTY: dose excreted (%)
Give a bare numeral; the unit % is implied.

Lab book: dose excreted of CC(=O)O.CNC(=N)NCCC[C@H](NC(=O)[C@H](CC(C)C)NC(=O)NNC(=O)[C@H](Cc1ccccc1)NC(=O)[C@@H](NC(=O)[C@H](CC(N)=O)NC(=O)[C@@H]1C[C@@H](O)CN1C(=O)[C@@H](Cc1ccc(O)cc1)NC(C)=O)[C@@H](C)O)C(=O)N[C@@H](Cc1c[nH]c2ccccc12)C(N)=O [API-MA] (Ac-[dY][Hyp]NTF[azaGly]L[Arg(Me)]W-NH2) noted as 7.1

====

# EXPERIMENTAL PROTOCOL: Single dose PK, phase 1, healthy Japanese men
# Format: in vivo, human
# CONDITION PARAMETERS: male, human, plasma, sc, 0.1 mg, single SC bolus 0.1 mg, mean
# Procedure: Thirty-seven healthy Japanese male subjects aged 50 to 74 years were enrolled into nine cohorts. Subjects enrolled in the first […] cohorts received 0.001, 0.004, 0.01, 0.04, 0.1, 0.25 or 0.5 mg of API-MA or placebo by single SC bolus. In the 0.001 mg cohort, 3 subjects received API-MA and two received placebo. In the remaining cohorts, 3 subjects received API-MA and one received placebo. […]
Where a SMILES comes first, the peptide text is derived from it. [ ]: non-standard residue; d: D form. Arg(Me) = CNC(=N)NCCC[C@H](N)C(=O)O; Hyp = O=C(O)[C@@H]1C[C@@H](O)CN1; azaGly = NNC(=O)O
PROPERTY: CL/F

Lab book: CL/F of CC(=O)O.CNC(=N)NCCC[C@H](NC(=O)[C@H](CC(C)C)NC(=O)NNC(=O)[C@H](Cc1ccccc1)NC(=O)[C@@H](NC(=O)[C@H](CC(N)=O)NC(=O)[C@@H]1C[C@@H](O)CN1C(=O)[C@@H](Cc1ccc(O)cc1)NC(C)=O)[C@@H](C)O)C(=O)N[C@@H](Cc1c[nH]c2ccccc12)C(N)=O [API-MA] (Ac-[dY][Hyp]NTF[azaGly]L[Arg(Me)]W-NH2) noted as 298 mL/min
